- experimental protocol: Volume of distribution at steady state in Beagle dog at 0.5 mg/kg, iv measured for 0.08 to 24 hrs post-dose
- Format: ADME, organism-based, Canis lupus familiaris
- test settings: in vivo, time 0.08-24 hrs, read-out: Vdss
quantity: Vd (L/kg)
Express the result in L/kg but write the number alone.

Return reported Vd; argument: CCOC(=O)[C@H](C)N[P@@]1(=O)OC[C@H]2O[C@@H](n3cnc4c(OCC)nc(N)nc43)[C@](C)(F)[C@@H]2O1
0.5

###

- experimental protocol: Half life in human at 2.5 mg/kg, iv
- Format: ADME, organism-based
- test settings: in vivo
quantity: half-life (min)
Express the result in min but write the number alone.

Return reported half-life; argument: CCC(CC)OC(=O)[C@H](C)N[P@](=O)(OC[C@H]1O[C@@](C#N)(c2ccc3c(N)ncnn23)[C@H](O)[C@@H]1O)Oc1ccccc1
60

###

- experimental protocol: Half life in Beagle dog at 0.5 mg/kg, iv measured for 0.08 to 24 hrs post-dose
- Assay type: ADME, organism-based, Canis lupus familiaris
- test settings: in vivo, time 0.08-24 hrs
quantity: half-life (min)
Express the result in min but write the number alone.

Return reported half-life; argument: CCOC(=O)[C@H](C)N[P@@]1(=O)OC[C@H]2O[C@@H](n3cnc4c(OCC)nc(N)nc43)[C@](C)(F)[C@@H]2O1
18

###

- experimental protocol: Clearance in human at 2.5 mg/kg, iv
- Format: ADME, organism-based
- test settings: in vivo
quantity: clearance (mL/min/kg)
Express the result in mL/min/kg but write the number alone.

Return reported clearance; argument: CCC(CC)OC(=O)[C@H](C)N[P@](=O)(OC[C@H]1O[C@@](C#N)(c2ccc3c(N)ncnn23)[C@H](O)[C@@H]1O)Oc1ccccc1
14.3

###

- Tested on: SARS-CoV-2
- experimental protocol: Antiviral activity against SARS-CoV-2 infected in HAE cells assessed as reduction in viral replication at MOI of 0.5 incubated for 2 hrs followed by virus removal measured after 48 hrs by plaque assay
- Format: functional, organism-based
- test settings: Severe acute respiratory syndrome coronavirus 2, HAE
quantity: EC50 (nM)
Express the result in nM but write the number alone.

Return reported EC50; argument: CCC(CC)OC(=O)[C@H](C)N[P@](=O)(OC[C@H]1O[C@@](C#N)(c2ccc3c(N)ncnn23)[C@H](O)[C@@H]1O)Oc1ccccc1
10

###

- experimental protocol: Half life in Rhesus monkey at 10 mg/kg, iv
- Assay type: ADME, organism-based, Macaca mulatta
- test settings: in vivo
quantity: half-life (min)
Express the result in min but write the number alone.

Return reported half-life; argument: CCC(CC)OC(=O)[C@H](C)N[P@](=O)(OC[C@H]1O[C@@](C#N)(c2ccc3c(N)ncnn23)[C@H](O)[C@@H]1O)Oc1ccccc1
23

###

- experimental protocol: Half life in ferret at 10 mg/kg, iv
- Format: ADME, organism-based, Mustela putorius furo
- test settings: in vivo
quantity: half-life (min)
Express the result in min but write the number alone.

Return reported half-life; argument: CCC(CC)OC(=O)[C@H](C)N[P@](=O)(OC[C@H]1O[C@@](C#N)(c2ccc3c(N)ncnn23)[C@H](O)[C@@H]1O)Oc1ccccc1
11

###

- experimental protocol: Volume of distribution at steady state in human at 2.5 mg/kg, iv
- Format: ADME, organism-based
- test settings: in vivo, read-out: Vdss
quantity: Vd (L/kg)
Express the result in L/kg but write the number alone.

Return reported Vd; argument: CCC(CC)OC(=O)[C@H](C)N[P@](=O)(OC[C@H]1O[C@@](C#N)(c2ccc3c(N)ncnn23)[C@H](O)[C@@H]1O)Oc1ccccc1
1.22
